B1: Azoarcus group I ribozyme (parent)
chain: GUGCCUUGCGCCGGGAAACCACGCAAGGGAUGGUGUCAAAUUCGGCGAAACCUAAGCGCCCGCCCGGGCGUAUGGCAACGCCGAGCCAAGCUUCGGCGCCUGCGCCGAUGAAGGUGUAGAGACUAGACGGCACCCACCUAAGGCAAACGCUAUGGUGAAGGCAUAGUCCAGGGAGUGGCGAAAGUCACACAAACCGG

- Variants of: B1
- Experiment Description: reverse-splicing fitness (ratio to wild type); higher = more active; in vitro selection; Mg2+ level not given
Reported Property: reverse-splicing fitness

**Query** Give the reported reverse-splicing fitness for this variant. A111U A145U C150G C169A
**Result** 0.0102

**Query** Give reported reverse-splicing fitness value for A145U C150A C169U U176C
**Result** 0.0345

**Query** Indicate its recorded reverse-splicing fitness; the variant in question is A111G A120G A145G C150U U176G
**Result** 0.00986

**Query** Consider the variant C82A A111U A120U C169A U176A and give its recorded reverse-splicing fitness.
**Result** 0.00348
